Method notes: Cmax in Wistar rat at 10 mg/kg, po
Assay type: ADME, organism-based
Parameters: route oral, dose 10 mg/kg
Settings: in vivo
Measured quantity: Cmax (ng/mL)
Respond numerically; units are ng/mL and should not be typed.

O=C(NC1CCC(O)CC1)c1csc(-c2ccc(OC(F)F)c3oc4ccccc4c23)n1 (stereo unspecified) yielded Cmax of 1400

----------
Method notes: Clearance in Wistar rat at 5 mg/kg, iv
Format: ADME, organism-based
Settings: in vivo
Measured quantity: clearance (mL/min/kg)
Respond numerically; units are mL/min/kg and should not be typed.

O=C(NC1CCC(O)CC1)c1csc(-c2ccc(OC(F)F)c3oc4ccccc4c23)n1 (stereo unspecified) yielded clearance of 6.67

----------
These compounds were tested on UniProtKB Q07343; pIC50 is the recorded read-out.
Please keep in mind that pIC50 is minus log10 of the molar concentration; only the number is needed.

COc1ccc(-c2nc(C(=O)NC3CCC(O)CC3)c(C)s2)c2c1oc1ccccc12 (stereo unspecified) yielded pIC50 of 7.36

COc1ccc(-c2nc(C(=O)NC3CCC(O)CC3)cs2)c2c1oc1ccccc12 (stereo unspecified) yielded pIC50 of 7.31

O=C(Nc1c(Cl)cncc1Cl)c1csc(-c2ccc(OC(F)F)c3oc4ccccc4c23)n1 yielded pIC50 of 6.90

Cc1sc(-c2ccc(OC(F)F)c3oc4ccc(NS(C)(=O)=O)cc4c23)nc1C(=O)NC1CCC(O)CC1 (stereo unspecified) yielded pIC50 of 7.61

COc1ccc(-c2nc(C(=O)Nc3c(Cl)cncc3Cl)cs2)c2c1oc1ccccc12 yielded pIC50 of 7.32

CS(=O)(=O)Nc1ccc2oc3c(OC(F)F)ccc(-c4nc(C(=O)NC5CCC(O)CC5)cs4)c3c2c1 (stereo unspecified) yielded pIC50 of 7.50

----------
What inhibition was measured for each of the following?
Test system: PBMC
Method notes: Inhibition of PDE-4 in human PBMC assessed as LPS-induced TNFalpha production at 1000 nM incubated for 15 mins followed by LPS stimulation and measured after 18 hrs by ELISA relative to control
Settings: time 1095.0 min
Respond numerically; units are % and should not be typed.

O=C(Nc1c(Cl)cncc1Cl)c1csc(-c2ccc(OC(F)F)c3oc4ccccc4c23)n1 yielded inhibition of 28.3

COc1ccc(-c2nc(C(=O)NN3CCOCC3)cs2)c2c1oc1ccccc12 yielded inhibition of 22

COc1ccc(-c2nc(C(=O)NC3CCCC3)c(C)s2)c2c1oc1ccccc12 yielded inhibition of 39.1

COc1ccc(-c2nc(C(=O)NC3CCC(O)CC3)c(C)s2)c2c1oc1ccccc12 (centres undefined) yielded inhibition of 103

CCNC(=O)c1nc(-c2ccc(OC)c3oc4ccccc4c23)sc1C yielded inhibition of 23.8

COc1ccc(-c2nc(C(=O)Nc3c(Cl)cncc3Cl)cs2)c2c1oc1ccccc12 yielded inhibition of 34.2

COc1ccc(-c2nc(C(=O)Nc3ccc(Cl)cc3)cs2)c2c1oc1ccccc12 yielded inhibition of 15.8

CC(=O)Nc1ccc2oc3c(OC(F)F)ccc(-c4nc(C(=O)NC5CCC(O)CC5)cs4)c3c2c1 (centres undefined) yielded inhibition of 91.9

CS(=O)(=O)Nc1ccc2oc3c(OC(F)F)ccc(-c4nc(C(=O)NC5CCC(O)CC5)cs4)c3c2c1 (centres undefined) yielded inhibition of 97.8

COc1ccc(-c2nc(C(=O)Nc3c(Cl)cncc3Cl)c(C)s2)c2c1oc1ccccc12 yielded inhibition of 9.9

COc1ccc(-c2nc(C(N)=O)cs2)c2c1oc1ccccc12 yielded inhibition of 69.8

O=C(NC1CCC(O)CC1)c1csc(-c2ccc(OC(F)F)c3oc4ccccc4c23)n1 (centres undefined) yielded inhibition of 93.8

O=C(NCC(F)(F)F)c1csc(-c2ccc(OC(F)F)c3oc4ccccc4c23)n1 yielded inhibition of 31.9

Cc1sc(-c2ccc(OC(F)F)c3oc4ccc(NS(C)(=O)=O)cc4c23)nc1C(=O)NC1CCC(O)CC1 (centres undefined) yielded inhibition of 92.8

----------
Test system: Rattus norvegicus
Method notes: Antiinflammatory activity in Sprague-Dawley rat model of LPS-induced COPD and asthma assessed as reduction in neutrophil influx in BALF at 10 mg/kg, po administered 30 mins before LPS stimulation and measured after 6 hrs relative to control
Assay type: functional
Settings: time 6.5 hrs
What inhibition in vivo at 10 mg/kg was measured for each of the following?
Respond numerically; units are % and should not be typed.

Cc1sc(-c2ccc(OC(F)F)c3oc4ccc(NS(C)(=O)=O)cc4c23)nc1C(=O)NC1CCC(O)CC1 (centres undefined) yielded inhibition in vivo at 10 mg/kg of 19.3

O=C(NC1CCC(O)CC1)c1csc(-c2ccc(OC(F)F)c3oc4ccccc4c23)n1 (centres undefined) yielded inhibition in vivo at 10 mg/kg of 58

O=C(Nc1c(Cl)cncc1Cl)c1ccc(OC(F)F)c(OCC2CC2)c1 yielded inhibition in vivo at 10 mg/kg of 73.2

CC(=O)Nc1ccc2oc3c(OC(F)F)ccc(-c4nc(C(=O)NC5CCC(O)CC5)cs4)c3c2c1 (centres undefined) yielded inhibition in vivo at 10 mg/kg of 51.2

----------
What inhibition was measured for each of the following?
Target desc: 3',5'-cyclic-AMP phosphodiesterase 4B (Homo sapiens, UniProt Q07343)
Sequence (Q07343 whole entry): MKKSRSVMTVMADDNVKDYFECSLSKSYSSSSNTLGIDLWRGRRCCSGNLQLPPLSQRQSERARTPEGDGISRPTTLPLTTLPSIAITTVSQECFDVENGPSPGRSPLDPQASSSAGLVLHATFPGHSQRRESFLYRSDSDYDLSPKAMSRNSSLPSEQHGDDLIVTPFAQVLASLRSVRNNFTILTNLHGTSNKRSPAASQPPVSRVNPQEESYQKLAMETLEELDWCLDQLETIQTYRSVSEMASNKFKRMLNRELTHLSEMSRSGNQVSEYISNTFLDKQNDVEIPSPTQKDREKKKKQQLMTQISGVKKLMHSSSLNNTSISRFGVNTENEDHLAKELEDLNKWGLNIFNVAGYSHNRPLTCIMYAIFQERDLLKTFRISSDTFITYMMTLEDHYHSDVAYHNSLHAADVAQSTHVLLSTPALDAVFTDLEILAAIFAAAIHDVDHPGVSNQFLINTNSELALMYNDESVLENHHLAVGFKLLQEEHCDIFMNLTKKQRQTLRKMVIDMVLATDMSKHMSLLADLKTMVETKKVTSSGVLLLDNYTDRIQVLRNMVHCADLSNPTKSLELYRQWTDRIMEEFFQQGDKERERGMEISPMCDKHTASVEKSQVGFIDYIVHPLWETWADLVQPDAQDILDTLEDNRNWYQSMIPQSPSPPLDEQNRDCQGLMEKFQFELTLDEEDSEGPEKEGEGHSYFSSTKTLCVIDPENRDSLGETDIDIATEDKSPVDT
Method notes: Inhibition of human PDE4B using [3H]CAMP as substrate at 1000 nM incubated for 5 mins followed by substrate addition and measured after 10 mins by scintillation proximity assay relative to control
Settings: time 15.0 min
Respond numerically; units are % and should not be typed.

COc1ccc(-c2csc(-c3ccc(OC)c4oc5ccccc5c34)n2)cc1 yielded inhibition of 41.5

CCOC(=O)c1csc(-c2ccc(OC)c3oc4ccccc4c23)n1 yielded inhibition of 24.4

COc1ccc(-c2nc(C(=O)Nc3ccc(Cl)cc3)cs2)c2c1oc1ccccc12 yielded inhibition of 5.2

COc1ccc(-c2nc(CCC(=O)Nc3c(Cl)cncc3Cl)cs2)c2c1oc1ccccc12 yielded inhibition of 38.5

COc1ccc(-c2nc(C(=O)N3CCN(c4ccccn4)CC3)cs2)c2c1oc1ccccc12 yielded inhibition of 52.9

----------
Method notes: Tmax in Wistar rat at 10 mg/kg, po
Assay type: ADME, organism-based
Settings: in vivo
Measured quantity: Tmax (h)
Respond numerically; units are h and should not be typed.

O=C(NC1CCC(O)CC1)c1csc(-c2ccc(OC(F)F)c3oc4ccccc4c23)n1 (stereo unspecified) yielded Tmax of 4.8

----------
Target desc: 3',5'-cyclic-AMP phosphodiesterase 4B (Homo sapiens)
Method notes: Inhibition of human PDE4B using [3H]cAMP as substrate at 100 nM incubated for 5 mins followed by substrate addition and measured after 10 mins by scintillation proximity assay relative to control
Settings: time 15.0 min
Measured quantity: inhibition
Form field: result (number plus unit)

COc1ccc(-c2nc(CC(=O)Nc3c(Cl)cncc3Cl)cs2)c2c1oc1ccccc12 yielded inhibition of 32.7%

CC(=O)Nc1ccc2oc3c(OC(F)F)ccc(-c4nc(C(=O)O)cs4)c3c2c1 yielded inhibition of 56.5%

CONC(=O)c1csc(-c2ccc(OC(F)F)c3oc4ccccc4c23)n1 yielded inhibition of 35.7%

CCOC(=O)c1csc(-c2ccc(OC)c3oc4ccccc4c23)n1 yielded inhibition of 17.6%

COc1ccc(-c2nc(C(=O)NC3CCC(O)CC3)cs2)c2c1oc1ccccc12 (centres undefined) yielded inhibition of 71.8%

O=C(Nc1c(Cl)cncc1Cl)c1csc(-c2ccc(OC(F)F)c3oc4ccccc4c23)n1 yielded inhibition of 42.3%

COc1ccc(-c2nc(C(=O)O)cs2)c2c1oc1ccccc12 yielded inhibition of 36%

CS(=O)(=O)Nc1ccc2oc3c(OC(F)F)ccc(-c4nc(C(=O)NC5CCC(O)CC5)cs4)c3c2c1 (centres undefined) yielded inhibition of 67%

Cc1sc(-c2ccc(OC(F)F)c3oc4ccc(NS(C)(=O)=O)cc4c23)nc1C(=O)NC1CCC(O)CC1 (centres undefined) yielded inhibition of 67.6%

O=C(NC1CCC(O)CC1)c1csc(-c2ccc(OC(F)F)c3oc4ccc(C(F)(F)F)cc4c23)n1 (centres undefined) yielded inhibition of 51.5%

COc1ccc(-c2nc(C(=O)N3CCN(c4ccccn4)CC3)cs2)c2c1oc1ccccc12 yielded inhibition of 21.9%

COc1ccc(-c2nc(C(=O)N3CCN(c4ncccn4)CC3)cs2)c2c1oc1ccccc12 yielded inhibition of 25.8%

O=C(O)c1csc(-c2ccc(OC(F)F)c3oc4ccc(C(F)(F)F)cc4c23)n1 yielded inhibition of 59.3%

CC(=O)Nc1ccc2oc3c(OC(F)F)ccc(-c4nc(C(=O)NC5CCC(O)CC5)cs4)c3c2c1 (centres undefined) yielded inhibition of 69%

COc1ccc(-c2nc(C(=O)Nc3c(Cl)cncc3Cl)c(C)s2)c2c1oc1ccccc12 yielded inhibition of 11.1%

CCOC(=O)c1cccc(-c2csc(-c3ccc(OC)c4oc5ccccc5c34)n2)n1 yielded inhibition of 5.8%

COc1ccc(-c2nc(C(=O)NN3CCOCC3)cs2)c2c1oc1ccccc12 yielded inhibition of 39.6%

O=C(c1csc(-c2ccc(OC(F)F)c3oc4ccc(C(F)(F)F)cc4c23)n1)N1CCC(O)CC1 yielded inhibition of 27.4%

COc1ccc(-c2nc(C(=O)Nc3ccccc3)cs2)c2c1oc1ccccc12 yielded inhibition of 2.4%
